The following molecules each carry a recorded IC50 for 5-HT2 (Rattus norvegicus, UniProt P14842).
experimental-endpoint: IC50 (µM)

1. CC(C)(NCC(O)COc1cccc2[nH]ccc12)[C@H]1CC[C@@](C)(NC(=O)CBr)CC1 (stereo partly drawn)    4
2. CC(C)(NC(=O)CBr)[C@H]1CC[C@@](C)(NCC(O)COc2cccc3[nH]ccc23)CC1 (stereo partly drawn)    3.1
3. CC(C)(NCC(O)COc1cccc2[nH]c(C#N)cc12)[C@H]1CC[C@@](C)(NC(=O)CBr)CC1 (stereo partly drawn)    4.4

---

# assay-system: β-adrenergic receptors
# test-summary: Radioligand binding, β-adrenergic receptors labeled by ^3 H-dihydroalprenolol (^3 H-DHA), rat cortex
# experimental-parameters: mean ± standard error of 3-4 experiments, read-out: Drug Potency (IC50) β-adrenergic (^3 H-DHA)
experimental-endpoint: IC50 (nM)

1. CC(C)(NCC(O)COc1cccc2[nH]ccc12)[C@H]1CC[C@@](C)(NC(=O)C2=CC3C=CC2CC3)CC1 (stereo partly shown) [Compound 15]    19

P. COC(=O)/C=C/C(=O)NC(C)(C)[C@H]1CC[C@@](C)(NCC(O)COc2cccc3[nH]ccc23)CC1 (stereo partly shown) [Compound 12]
Q. CC(C)(NC(=O)C1=CC2C=CC1CC2)[C@H]1CC[C@@](C)(NCC(O)COc2cccc3[nH]ccc23)CC1 (stereo partly shown) [Compound 14]
q: Hi! Which is lower in terms of IC50, the first one P or the second one Q ? Please identify the chosen entry by its label.
a: P
(P: 2.8 nM, Q: 4.2 nM)

a. COC(=O)/C=C/C(=O)N[C@]1(C)CC[C@H](C(C)(C)NCC(O)COc2cccc3[nH]ccc23)CC1 (stereo partly shown) [Compound 13]
b. CC(C)(NCC(O)COc1cccc2[nH]c(C#N)cc12)[C@H]1CC[C@@](C)(NC(=O)CBr)CC1 (stereo partly shown) [Compound 11]
q: Short answer wanted: higher IC50, a or b ? Please identify the chosen entry by its label.
a: a

1. CC(C)(NC(=O)CBr)[C@H]1CC[C@@](C)(NCC(O)COc2cccc3[nH]ccc23)CC1 (stereo partly shown) [Compound 8]
2. CC(C)(NCC(O)COc1cccc2[nH]ccc12)[C@H]1CC[C@@](C)(NC(=O)CBr)CC1 (stereo partly shown) [Compound 9]
q: Short answer wanted: higher IC50, 1 or 2 ? Please identify the chosen entry by its label.
a: 2
